Just for reference, patent US10112937B2 is where these values come from.

Reported PBMC 1 μM (% control) values for the following compounds.
- TARGET_ENTITY: human P2X7 (Homo sapiens (Human), UniProt Q99572)
- Sequence (Q99572 whole entry): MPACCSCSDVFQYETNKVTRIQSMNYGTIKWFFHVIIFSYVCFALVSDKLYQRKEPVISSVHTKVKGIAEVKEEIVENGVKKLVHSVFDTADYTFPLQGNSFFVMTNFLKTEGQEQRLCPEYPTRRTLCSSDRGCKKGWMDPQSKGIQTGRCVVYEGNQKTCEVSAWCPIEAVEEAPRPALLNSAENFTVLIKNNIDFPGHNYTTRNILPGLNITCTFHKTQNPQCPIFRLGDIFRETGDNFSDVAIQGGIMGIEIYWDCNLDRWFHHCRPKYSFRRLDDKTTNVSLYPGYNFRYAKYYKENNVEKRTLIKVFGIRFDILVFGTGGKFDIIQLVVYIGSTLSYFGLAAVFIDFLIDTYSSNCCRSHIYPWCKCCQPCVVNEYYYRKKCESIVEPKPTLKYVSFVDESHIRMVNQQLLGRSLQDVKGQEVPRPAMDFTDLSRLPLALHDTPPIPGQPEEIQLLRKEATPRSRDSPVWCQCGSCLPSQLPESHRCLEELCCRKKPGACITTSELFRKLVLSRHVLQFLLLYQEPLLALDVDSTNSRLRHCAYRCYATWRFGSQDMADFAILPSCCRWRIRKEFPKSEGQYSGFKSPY
- PROCEDURE_SUMMARY: P2X7 antagonism in human PBMCs (IL-1β release after LPS + Bz-ATP, ELISA)
- Format: cell-based
- SETUP_CONDITIONS: human PBMCs, test compound 1 μM

{"columns": ["COMPOUND", "PBMC 1 μM (% control)"],
 "data": [
  ["O=C(c1cccc(C(F)(F)F)c1Cl)N1C=Cc2c(ncn2-c2cnccn2)C1 [Example 54]", 8.6],
  ["O=C(c1cccc(C(F)(F)F)c1Cl)N1CCc2c(ncn2-c2ccccc2)C1CO (stereo not drawn) [Example 30]", 87.0],
  ["O=C(c1cccc(C(F)(F)F)c1Cl)N1C=Cc2c(nnn2-c2cnccn2)C1c1ccccc1 (stereo not drawn) [Example 76]", 1.6],
  ["CC1(C)c2ncn(-c3ccccc3)c2CCN1C(=O)c1cccc(C(F)(F)F)c1Cl [Example 53]", 99.0],
  ["O=C(c1cccc(Cl)c1Cl)N1CCc2c(nnn2-c2ccccc2)C1 [Example 62]", 5.2],
  ["O=C(c1cccc2c1OC(F)(F)O2)N1CCc2c(ncn2-c2ccccc2)C1 [Example 50]", 96.0],
  ["O=C(c1cccc(C(F)(F)F)c1Cl)N1CCc2c(-c3ccccc3)n[nH]c2C1 [Example 99]", 7.0],
  ["Cn1nc2c(c1-c1ccccc1)CCN(C(=O)c1cccc(Cl)c1Cl)C2 [Example 102]", 18.0],
  ["O=C(c1cccc(Cl)c1Cl)N1CCc2c(-c3ccccc3)n[nH]c2C1 [Example 100]", 9.2],
  ["CC1c2nnn(-c3cnccn3)c2C=CN1C(=O)c1cccc(C(F)(F)F)c1Cl (stereo not drawn) [Example 72]", "−5.7"],
  ["CCOC(=O)C1c2ncn(-c3ccccc3)c2CCN1C(=O)c1cccc(C(F)(F)F)c1Cl (stereo not drawn) [Example 26]", 14.0],
  ["Cn1nc2c(c1-c1ccc(F)cc1)CCN(C(=O)c1cccc(Cl)c1Cl)C2 [Example 326]", 92.0]
]}

* * *

Listing of entries alongside the reported PBMC 10 μM (% control).
- TARGET_ENTITY: human P2X7 (Homo sapiens (Human), UniProt Q99572)
- PROCEDURE_SUMMARY: P2X7 antagonism in human PBMCs (IL-1β release after LPS + Bz-ATP, ELISA)
- Type: cell-based
- SETUP_CONDITIONS: test compound 10 μM, LPS 30 ng/ml + 0.5 mM Bz-ATP
MEASURED_PROPERTY: PBMC 10 μM (% control)

{"columns": ["COMPOUND", "TARGET_ENTITY", "UNITS_LABEL", "RESULT"],
 "data": [
  ["Cc1ccnc(-n2nnc3c2CCN(C(=O)c2cccc(C(F)(F)F)c2Cl)[C@@H]3C)c1 (single isomer, unassigned)", "human P2X7 (Homo sapiens (Human), UniProt Q99572)", "% control", "−3.7"],
  ["Cc1cc(C)nc(-n2nnc3c2CCN(C(=O)c2cccc(C(F)(F)F)c2Cl)[C@@H]3C)n1 (single isomer, unassigned)", "human P2X7 (Homo sapiens (Human), UniProt Q99572)", "% control", "−0.1"],
  ["C[C@@H]1c2ncn(-c3ncc(F)cn3)c2CCN1C(=O)c1cccc(C(F)(F)F)c1Cl (single isomer, unassigned)", "human P2X7 (Homo sapiens (Human), UniProt Q99572)", "% control", 1.4],
  ["C[C@H]1c2nnn(-c3ncc(F)cn3)c2CCN1C(=O)c1cccc(C(F)(F)F)c1F (single isomer, unassigned)", "human P2X7 (Homo sapiens (Human), UniProt Q99572)", "% control", "−4.7"],
  ["Cc1cc(C)nc(-n2nnc3c2CCN(C(=O)c2cccc(C(F)(F)F)c2Cl)C3C)n1 (stereo not drawn)", "human P2X7 (Homo sapiens (Human), UniProt Q99572)", "% control", "−2.6"],
  ["C[C@@H]1c2nnn(-c3ccc(F)cc3)c2C[C@H](C)N1C(=O)c1cccc(C(F)(F)F)c1Cl", "human P2X7 (Homo sapiens (Human), UniProt Q99572)", "% control", "−4.1"],
  ["Cc1c(C(=O)N2CCc3c(nnn3-c3ncccn3)[C@H]2C)cccc1C(F)(F)F (single isomer, unassigned)", "human P2X7 (Homo sapiens (Human), UniProt Q99572)", "% control", "−0.7"],
  ["CC1c2ncn(-c3ccccn3)c2CCN1C(=O)c1cccc(C(F)(F)F)c1F (single isomer, unassigned)", "human P2X7 (Homo sapiens (Human), UniProt Q99572)", "% control", 5.8],
  ["C[C@@H]1c2ncn(-c3ccccn3)c2CCN1C(=O)c1cccc(Cl)c1Cl (single isomer, unassigned)", "human P2X7 (Homo sapiens (Human), UniProt Q99572)", "% control", "−6.3"]
]}
